Measured values drawn from paper PMC12040169 for this set.

- procedure.details: in vitro
- experimental.conditions: human, hela cells, % viability
Hi there, I'd appreciate the recorded viability at 28.5 h, 10 µM for every entry that follows.

Consider the following illustrative entries.
molecule: Cc1nc2c(c(=O)[nH]1)CN(C1CCCCC1)CC2 [CBK282416]
result: 82.2%

molecule: FC(F)(F)c1ccnc(SCCc2cnccn2)n1 [CBK105300]
result: 88.6%

molecule: Cc1ccc(C(=O)Nc2ccccc2C(=O)N2CCN(Cc3ccccc3)CC2)cc1 [CBK263560]
result: 94%

molecule: CCN(Cc1nccn1CC)[C@H]1CCO[C@@H](c2ccccc2-c2ccc(OC)cc2)C1 [CBK285852]
result: 101%

molecule: N#Cc1cccc(C(=O)N2CCCN(Cc3ccc(Cl)cc3)CC2)c1 [CBK305323]
result: 95.9%

Hi team, please reply with viability at 28.5 h, 10 µM for each item in this list.
1. COCCN1CCOC2(CCN(C(=O)c3ccc(C)cc3)CC2)C1c1ccccc1OC (stereo not shown) [CBK112657C]
2. COc1ccc(-c2cc(C(=O)NCCc3cccc(C(F)(F)F)c3)cnc2-c2ccccc2)cn1 [CBK036662]
3. O=C(CSCc1ccc(Br)cc1)Nc1ccc(S(=O)(=O)N2CCOCC2)cc1 [CBK267845]
4. CN1C[C@H]2N(C)C(=O)c3ccccc3C(=O)[C@@]2(C)C1 [CBK283482]
5. CCN1C(=O)CC2(C1=O)C(=O)N(Cc1nnc(-c3ccc(C)cc3)o1)c1ccc(OC)cc12 (stereo not shown) [CBK075586]
6. Nc1ccc(C(=O)Nc2ccc(-c3nc4ccc(NC(=O)c5ccc(N)cc5)cc4[nH]3)cc2)cc1 [CBK261147]

a:
100%
99.9%
97.1%
86.7%
90.4%
109%
